Biological target: JNK3 (Homo sapiens)
Construct: One such construct encodes amino acid residues Ser40-Glu402 of JNK3α1 and is preceded by Met and Gly residues; Met-Gly (initiation methionine plus glycine added for the NcoI site)
Sequence (P53779 40-402): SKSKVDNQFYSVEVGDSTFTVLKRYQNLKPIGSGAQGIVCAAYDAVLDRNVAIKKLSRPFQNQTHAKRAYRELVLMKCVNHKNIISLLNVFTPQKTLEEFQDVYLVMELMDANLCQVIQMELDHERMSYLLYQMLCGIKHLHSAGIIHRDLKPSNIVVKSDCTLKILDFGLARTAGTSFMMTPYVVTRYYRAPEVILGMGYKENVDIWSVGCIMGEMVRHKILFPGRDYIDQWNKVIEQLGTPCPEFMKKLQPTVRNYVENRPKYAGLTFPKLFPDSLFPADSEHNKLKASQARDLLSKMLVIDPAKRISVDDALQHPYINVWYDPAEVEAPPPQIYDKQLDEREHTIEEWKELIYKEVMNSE
Test: JNK inhibition assay: spectrophotometric coupled-enzyme assay with activated JNK3
Details: activated JNK3 10 nM, 10 μM ATP, 200 μM EGF receptor peptide, 30° C., competitive inhibition model
# Ki listing for each entry below

Solved entries (count: 4):
O=C1/C(=N\O)c2cc([N+](=O)[O-])ccc2N1Cc1cc(F)cc2c1OCOC2 ... ≥ 1000 nM
O=C1/C(=N\O)c2cc(NCc3ccccc3)ccc2N1Cc1cc(F)cc2c1OCOC2 ... ≥ 1000 nM
O=C(NCCc1ccccn1)c1ccc2c(c1)N(Cc1cc(F)cc3c1OCOC3)C(=O)/C2=N\O ... ≥ 1000 nM
CCCNC(=O)c1ccc2c(c1)N(Cc1cc(F)cc3c1OCOC3)C(=O)/C2=N\O ... ≥ 1000 nM

Find the recorded Ki belonging to `COc1ccc(C(=O)Nc2ccc3c(c2)N(Cc2cc(F)cc4c2OCOC4)C(=O)/C3=N\O)cc1` and report it. ≥ 1000 nM

Find the recorded Ki belonging to `O=C1/C(=N\O)c2ccccc2N1Cc1ccc(Cl)cc1Cl` and report it. < 1000 nM

Find the recorded Ki belonging to `O=C1/C(=N\O)c2cc(F)ccc2N1Cc1cc(F)cc2c1OCOC2` and report it. < 1000 nM

Find the recorded Ki belonging to `O=C(NCc1cc(Cl)ccc1Cl)c1ccc2c(c1)N(Cc1cc(F)cc3c1OCOC3)C(=O)/C2=N\O` and report it. ≥ 1000 nM

Find the recorded Ki belonging to `Cc1ccccc1-c1ccc2c(c1)N(Cc1cc(F)cc3c1OCOC3)C(=O)/C2=N\O` and report it. < 1000 nM

Find the recorded Ki belonging to `O=C1/C(=N/O)c2ccc(-c3ccsc3)cc2N1CCOc1ccccc1` and report it. ≥ 1000 nM

Find the recorded Ki belonging to `O=C(Nc1ccc2c(c1)/C(=N/O)C(=O)N2Cc1ccccc1)c1ccccc1` and report it. ≥ 1000 nM

Find the recorded Ki belonging to `COc1cc(CN2C(=O)/C(=N\O)c3cc(Cl)ccc32)cc(OC)c1` and report it. < 1000 nM

Find the recorded Ki belonging to `O=C1/C(=N\O)c2cc(Br)ccc2N1Cc1ccccc1F` and report it. ≥ 1000 nM

Find the recorded Ki belonging to `Cc1cccc(CN2C(=O)/C(=N\O)c3cc(F)ccc32)c1` and report it. ≥ 1000 nM
